The origin of these recorded values is ChEMBL document CHEMBL2417512.

# test-name: Lipophilicity, log D of the compound
# Type: physicochemical
# stated-conditions: octanol/water
Assign True to entries whose logD meets or exceeds 2; assign False to the rest.

| smiles-notation | answer-label |
| --- | --- |
| CN(C)c1ccc2ccc(C(=O)N3CCC4(CC3)Cc3cn(C(C)(C)C)nc3C(=O)N4)cc2n1 | False |
| CNc1nccc2ccc(C(=O)N3CCC4(CC3)Cc3cn(C(C)(C)C)nc3C(=O)N4)cc12 | False |
| Cc1n[nH]c2c(C)cc(C(=O)N3CCC4(CC3)Cc3cn(C(C)(C)C)nc3C(=O)N4C)cc12 | False |
| Cc1n[nH]c2c(C)cc(C(=O)N3CCC4(CC3)Cc3cnn(C(C)(C)C)c3C(=O)N4)cc12 | True |
